test_method_notes: Aqueous solubility
Assay type: physicochemical
protocol_conditions: read-out: S
// solubility lookup, one value per entry
Quick reminder: number only, in µg/mL, skip the unit.

sample_smiles: CCCC(CCC)CN1CCC(S(=O)(=O)CCCOc2ccc3[nH]c4nc(O)nc-4cc3c2)CC1.Cl
unit_descriptor: µg/mL
solubility: 1000

Consider the record given below.
Given item Cl.O=S(=O)(CCCCOc1ccc2[nH]c3nc(O)nc-3cc2c1)C1CCN(Cc2ccc(F)cc2)CC1 , the value recorded as its solubility is 2000

###

test_method_notes: Aqueous solubility
Type: physicochemical
protocol_conditions: read-out: S
// solubility lookup, one value per entry

Please review the entries below; each comes with its answer.
sample_smiles: CCOC(=O)N1CCC(S(=O)(=O)CCCOc2ccc3[nH]c4nc(O)nc-4cc3c2)CC1
solubility: < 1000 µg/mL
//
sample_smiles: CCCC(CCC)CN1CCC(n2nnnc2CCCOc2ccc3[nH]c4nc(O)nc-4cc3c2)CC1.Cl
solubility: 2000 µg/mL
//
sample_smiles: CCC(CC)CN1CCN(S(=O)(=O)CCCOc2ccc3[nH]c4nc(O)nc-4cc3c2)CC1.Cl
solubility: > 10000 µg/mL
//
sample_smiles: Cl.O=S(=O)(CCCOc1ccc2[nH]c3nc(O)nc-3cc2c1)C1CCN(CCC2CCCCC2)CC1
solubility: < 5000 µg/mL

Given item Cl.Oc1nc2cc3cc(OCCCCc4nnnn4C4CCN(Cc5ccc(F)cc5)CC4)ccc3[nH]c-2n1 , the value recorded as its solubility is > 5000 µg/mL
